Target: MM.1S, B Lymphoblast (multiple myeloma)
Test: Viability assay (MTT, Alamar Blue, hexosaminidase), 72 h
Assay type: cell-based
Conditions: MM.1S cells, read-out: EC50
measured-property: EC50

RQRRNXLKRAFAXLRDQ-OH [IDP-S03]    ~14 µM
APKXVIFKKAXAYILS-OH [IDP-S14]    6.6 µM
RQRRNELKRXFFALRDX-NH2 [IDP-S12]    22 µM
QRRNXLKRAFAXLRD-OH [IDP-S312]    ~25 µM
RQRRNXLKRAFAXLRD-OH [IDP-S311]    ~15 µM

====

Molecular target: MCF-7, epithelial (breast cancer)
Assay: Viability assay (MTT, Alamar Blue, hexosaminidase), 72 h
Assay type: cell-based
Conditions: MCF7 cells, read-out: EC50
Bridge positions count the residues as written; N and C are the ends. Square brackets hold non-standard residues; d marks the D form. Peptide text beside a SMILES is read from it. R8 = C=CCCCCCC[C@@](C)(N)C(=O)O; S5 = C=CCCC[C@](C)(N)C(=O)O
measured-property: EC50

CC(C)C[C@@H]1NC(=O)[C@H](C)NC(=O)[C@H](Cc2ccccc2)NC(=O)[C@H](Cc2ccccc2)NC(=O)[C@](C)(NC(=O)[C@H](CCCNC(=N)N)NC(=O)[C@H](CCCCN)NC(=O)[C@H](CC(C)C)NC(=O)[C@H](CCC(=O)O)NC(=O)[C@@H](N)CC(N)=O)CCCCCC/C=C\CCC[C@@](C)(C(N)=O)NC(=O)[C@H](CC(=O)O)NC(=O)[C@H](CCCNC(=N)N)NC1=O [IDP-S13, NELKRXFFALRDX-NH2] (H-NELKR[R8]FFALRD[S5]-NH2; staple (Z) 6-13; N-terminus assumed)    > 100 µM
CCc1ccc(/C=C2/SC(=S)NC2=O)cc1 [10058-F4, reference compound]    ~52 µM

====

Molecular target: RAMOS, B lymphocyte (Burkitt's Lymphoma)
Test: Viability assay (MTT, Alamar Blue, hexosaminidase), 72 h
Type: cell-based
Details: Ramos cells, read-out: EC50
pEC50: −log10 of the molar value. Bridge positions count the residues as written; N and C are the ends. Square brackets hold non-standard residues; d marks the D form. Peptide text beside a SMILES is read from it. R8 = C=CCCCCCC[C@@](C)(N)C(=O)O; S5 = C=CCCC[C@](C)(N)C(=O)O
Item-by-item account of pEC50
measured-property: pEC50

CCc1ccc(/C=C2/SC(=S)NC2=O)cc1 [10058-F4, reference compound]    ~4.24
CC(C)C[C@@H]1NC(=O)[C@H](C)NC(=O)[C@H](Cc2ccccc2)NC(=O)[C@H](Cc2ccccc2)NC(=O)[C@](C)(NC(=O)[C@H](CCCNC(=N)N)NC(=O)[C@H](CCCCN)NC(=O)[C@H](CC(C)C)NC(=O)[C@H](CCC(=O)O)NC(=O)[C@@H](N)CC(N)=O)CCCCCC/C=C\CCC[C@@](C)(C(N)=O)NC(=O)[C@H](CC(=O)O)NC(=O)[C@H](CCCNC(=N)N)NC1=O [IDP-S13, NELKRXFFALRDX-NH2] (H-NELKR[R8]FFALRD[S5]-NH2; staple (Z) 6-13; N-terminus assumed)    < 4.00

====

Biological target: MCF-7, epithelial (breast cancer)
Test: Viability assay (MTT, Alamar Blue, hexosaminidase), 72 h
Type: cell-based
Conditions: MCF7 cells, read-out: EC50
Description: MCF-7, epithelial (breast cancer), ECACC: 86012803 […] During the amplification step and the assays adherent cells were rinsed with DPBS (Dulbecco's Phosphate Buffered Saline, Sigma D1283) three times and afterward treated for 5 minutes with trypsin ([…]) (Gibco-BRL, 15400054) in solution of DPBS at 37° C., and, once detached, transferred in the culturing medium. […] Cells were counted in a Neubauer chamber after labelling with Tripan-Blue. […]
measured-property: EC50 (µM)

RQRRNELKRXFFALRDX-NH2 [IDP-S12]    42
RQRRNXLKRAFAXLRDQ-OH [IDP-S03]    32

====

Biological target: HL-60, promyeloblast (acute myelocytic leukemia, AML)
Test: Viability assay (MTT, Alamar Blue, hexosaminidase), 72 h
Assay type: cell-based
pEC50: −log10 of the molar value. Ends that are not written are not given here.
Item-by-item account of pEC50
measured-property: pEC50

RQRRNELKRSFFALRDQ [IDP-L11, RQRRNELKRSFFALRDQ]    < 4.00
NELKRSFFALRDQ-OH [IDP-L10, NELKRSFFALRDQ]    < 4.00

====

Target: HL-60, promyeloblast (acute myelocytic leukemia, AML)
Test: Viability assay (MTT, Alamar Blue, hexosaminidase), 72 h
Format: cell-based
Details: HL-60 cells, read-out: EC50
pEC50: −log10 of the molar value.
measured-property: pEC50

CCc1ccc(/C=C2/SC(=S)NC2=O)cc1 [10058-F4, reference compound]    4.27

====

Target: A549, epithelial (lung cancer)
Assay: Viability assay (MTT, Alamar Blue, hexosaminidase), 72 h
Assay type: cell-based
Details: A549 cells, read-out: EC50
measured-property: EC50

CCc1ccc(/C=C2/SC(=S)NC2=O)cc1 [10058-F4, reference compound]    > 100 µM

====

Target: HL-60, promyeloblast (acute myelocytic leukemia, AML)
Assay: Viability assay (MTT, Alamar Blue, hexosaminidase), 72 h
Type: cell-based
Settings: HL-60 cells, read-out: EC50
Item-by-item account of EC50
measured-property: EC50 (µM)

APKXVIFKKAXAYILS-OH [IDP-S14]    7.8
RQRRNELKRXFFALRDX-NH2 [IDP-S12]    23
